FYI, the data here is from ChEMBL document CHEMBL3832066.

- test_summary: Pharmacokinetic parameters for Isosorbide mononitrate after single oral dose administration of 60 mg Isosorbide mononitrate solution or table to subjects.
- Assay type: ADME, organism-based
- Set-up: dose 60 mg, route oral
- particulars: human, in vivo; dose 60 mg, dosed compound id 10, dosed compound name ISOSORBIDE MONONITRATE, regimen Single dose, route oral, tissue Plasma
metric: CL/F

[[record]]
molecule = "O=[N+]([O-])O[C@@H]1CO[C@H]2[C@@H]1OC[C@@H]2O [ISOSORBIDE MONONITRATE]"
metric = "CL/F"
reported_measurement = "151 to 187 mL/min"


* * *

- Test system: Homo sapiens
- test_summary: Pharmacokinetic parameters for Isosorbide mononitrate after single oral dose administration of 60 mg Isosorbide mononitrate solution or table to subjects.
- Type: ADME, organism-based
- Set-up: dose 60 mg, route oral
- particulars: in vivo, po, dosed compound id 10, dosed compound name ISOSORBIDE MONONITRATE, regimen Single dose, tissue Plasma
metric: AUC

[[record]]
molecule = "O=[N+]([O-])O[C@@H]1CO[C@H]2[C@@H]1OC[C@@H]2O [ISOSORBIDE MONONITRATE]"
metric = "AUC"
reported_measurement = "8190 to 8310 ng·h/mL"

